B1: CPEB3 Ribozyme (parent)
chain: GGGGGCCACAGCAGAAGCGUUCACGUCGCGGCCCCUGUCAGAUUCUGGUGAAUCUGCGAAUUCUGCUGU

variants of: B1; assay: self-cleavage, relative activity (ratio to wild type); higher = more cleavage; co-transcriptional
parameter measured: self-cleavage
Lab note: record the figure alone, no unit after it.

Task: Return reported self-cleavage; argument: `GGGGGCCACAGCAGAAGCGUUCACGUCGGGGCCCCUGUCAGAUUCUGGUGAAUCUGCGAAUUCUCCUGU`
Output: 0.232

Task: Return reported self-cleavage; argument: `GGGGGCCACAGCAGAAGCGUACACGUCGCGGCCCCUGGCAGAUUCUGGUGAAUCUGCGAAUUCUGCUGU`
Output: 0.24

Task: Return reported self-cleavage; argument: `GGGGGCCACAGCAGAAGCGUUUACGUCGCGGCCCCUGUCAGAUUCUGGUGAAUCUGAGAAUUCUGCUGU`
Output: 0.166

Task: Return reported self-cleavage; argument: `GGGGGCCACAGCAGAAGCGCUCACUUCGCGGCCCCUGUCAGAUUCUGGUGAAUCUGCGAAUUCUGCUGU`
Output: 0.616

Task: Return reported self-cleavage; argument: `GGGGGCCACAGCAGAAGCGUUCACGUCGCGGCCCCUGUCAGAUUCUGGUGAGUCUUCGAAUUCUGCUGU`
Output: 0.97

Task: Return reported self-cleavage; argument: `GGGGGCCACAGCAGAAGCGUUCACGUCGCGGCCCCUGUCAGAUUCCGGUGAAUCUGCAAAUUCUGCUGU`
Output: 0.979

Task: Return reported self-cleavage; argument: `GGGGGCCACAGCAGAAGCGUUCACGUCGCGGCCCCUGUCAGAUUCUGGUGAAUCCGCAAAUUCUGCUGU`
Output: 0.91

Task: Return reported self-cleavage; argument: `GGGGGCCACAGCAGAAGCGUACACGUCGCGGCCCCUGUCAGAUUGUGGUGAAUCUGCGAAUUCUGCUGU`
Output: 0.956

Task: Return reported self-cleavage; argument: `GGGGGCCACAGCAGAAGCGUUCAUGUCGCGGCCCCUGCCAGAUUCUGGUGAAUCUGCGAAUUCUGCUGU`
Output: 0.582

Task: Return reported self-cleavage; argument: `GGGGGCCACAGCAGAAGCAUUCACGUCGCGGCCCCUGUCUGAUUCUGGUGAAUCUGCGAAUUCUGCUGU`
Output: 0.147

Task: Return reported self-cleavage; argument: `GGGGGCCACAGCAGAAGCGUUCACGUCGCGGCCCCUGUCAGAUUCUGGUUAAUCUGCGAAUUCUGCUGG`
Output: 1.05

Task: Return reported self-cleavage; argument: `GGGGGCCACAGCAGAAGCGUACACGUCGCGGCCCCUUUCAGAUUCUGGUGAAUCUGCGAAUUCUGCUGU`
Output: 0.356

Task: Return reported self-cleavage; argument: `GGGGGCCACAGCAGAAGCGUUCACGUCGCGGCUCCUGUCAGAUUCUGGUGAAUCUGCGAAAUCUGCUGU`
Output: 0.905

Task: Return reported self-cleavage; argument: `GGGGGCCACAGCAGAAGCGCUCACGUCGCGGCCCCUGUCAGAUUCUGGCGAAUCUGCGAAUUCUGCUGU`
Output: 0.214

Task: Return reported self-cleavage; argument: `GGGGGCCACAGCAGAAGCGUUCACGUCGCGGCGCCUGUCAGAUUCUGGUGAAUCUGCGCAUUCUGCUGU`
Output: 0.326

Task: Return reported self-cleavage; argument: `GGGGGCCACAGCAGUAGCGUUCAUGUCGCGGCCCCUGUCAGAUUCUGGUGAAUCUGCGAAUUCUGCUGU`
Output: 0.28

Task: Return reported self-cleavage; argument: `GGGGGCCACAGCAAAAGCGUUCACGUCGCGGCCCCUGUCAGACUCUGGUGAAUCUGCGAAUUCUGCUGU`
Output: 0.624

Task: Return reported self-cleavage; argument: `GGGGGCCACAGCAGAAGCGUUCACGUCGCGGCUCCUGUCAGAAUCUGGUGAAUCUGCGAAUUCUGCUGU`
Output: 0.915

Task: Return reported self-cleavage; argument: `GGGGGCCACAGCAGAAGCGUUCACUUCGCGGCCCCUGUCAGAUACUGGUGAAUCUGCGAAUUCUGCUGU`
Output: 0.136

Task: Return reported self-cleavage; argument: `GGGGGCCACAGCAGAAGCGUUCACGUCGCGCCCCCUGUCAGGUUCUGGUGAAUCUGCGAAUUCUGCUGU`
Output: 0.277

Task: Return reported self-cleavage; argument: `GGGGGCCACAGCAGAAGCGUUCCCGUCGCGGCCCCUGUCAGAUUCUGGUGAAUCUGCGAAUUCUGCCGU`
Output: 0.97

Task: Return reported self-cleavage; argument: `UGGGGCCACAGCAGAAGCGUUCACGUCGCGGCCCCUGUCAGAUUCUGGUGAAACUGCGAAUUCUGCUGU`
Output: 0.0914

Task: Return reported self-cleavage; argument: `GGGGGCCACAGCAGAAGCGUUCACGUCGCGGCCCCUGUCAGAUUCUGGUGAAUCUGCGAAUCCUGCCGU`
Output: 0.687

Task: Return reported self-cleavage; argument: `GGGGGCCACAGCAGAAUCGUUGACGUCGCGGCCCCUGUCAGAUUCUGGUGAAUCUGCGAAUUCUGCUGU`
Output: 0.112

Task: Return reported self-cleavage; argument: `GAGGACCACAGCAGAAGCGUUCACGUCGCGGCCCCUGUCAGAUUCUGGUGAAUCUGCGAAUUCUGCUGU`
Output: 0.0392

Task: Return reported self-cleavage; argument: `GGGGGCCACAUCAGAAGCGUUCACGUCGCGGCCCCUGUCAGAUUCUGGUGAAUCUGCGAAUACUGCUGU`
Output: 0.38

Task: Return reported self-cleavage; argument: `GGGGGCCACAGCAGAAGCGUUCACGUCGCGGCCCCCGUCAGGUUCUGGUGAAUCUGCGAAUUCUGCUGU`
Output: 0.77

Task: Return reported self-cleavage; argument: `GGGGGCCGCAGCAGAAGCGUUCACGUCGCGGCCCCUGUCAGAUUCUGGUGAAUCUGCGAAUUAUGCUGU`
Output: 0.253

Ref: the RNAGym collection of RNA variant scans (doi:10.7554/elife.80360)
